# protocol_details: Metabolic stability in mouse liver microsomes assessed as half life
# Assay type: ADME, Microsome
Each record here notes measured t1/2.

| line_notation | t1/2, min |
| --- | --- |
| O=C(Nc1cnn(-c2csc(C(=O)NC3COC3)c2)c1)Nc1ccccc1Cl | 24 |
| O=C(Nc1cnn(-c2csc(C(=O)NCC3CCOCC3)c2)c1)Nc1ccccc1Cl | 15 |
| O=C(Nc1cnn(-c2csc(C(=O)N[C@@H]3CCOC3)c2)c1)Nc1ccccc1Cl | 13 |
| CN1CCC(NC(=O)c2cc(-n3cc(NC(=O)Nc4ccccc4Cl)cn3)cs2)CC1 | 15 |
| Cc1sc(C(=O)N[C@@H]2CCOC2)cc1-n1cc(NC(=O)Nc2c(F)cccc2Cl)cn1 | 38 |
| O=C(Nc1cnn(-c2csc(C(=O)NC3COC3)c2)c1)Nc1c(F)cccc1Cl | 72 |
| O=C(Nc1cnn(-c2csc(C(=O)NC3CCOCC3)c2)c1)Nc1ccccc1Cl | 16 |
| O=C(Nc1cnn(-c2csc(C(=O)NC3CC3)c2)c1)Nc1ccccc1Cl | 35 |
| O=C(Nc1cnn(-c2csc(C(=O)NC3COC3)c2)c1)Nc1ccc(F)cc1Cl | 68 |
| Cc1sc(C(=O)NC2COC2)cc1-n1cc(NC(=O)Nc2c(F)cccc2Cl)cn1 | 57 |

Cited source: ChEMBL document CHEMBL4715902
